From: paper PMC10610214

System: H2O2-induced PC12 cells
Assay: Neuroprotection against H2O2-induced PC12 cell injury (MTT)
Assay type: cell-based
Settings: compound 10 μM, H2O2 250 μM, mean ± SEM
H2O2-Induced PC12 Cell Viability (% of Control) by entry:

Below: 5 molecules and their reported H2O2-Induced PC12 Cell Viability (% of Control).
COc1ccc(S(=O)(=O)Nc2ccc3nc4n(c(=O)c3c2)-c2ccccc2C4=O)cc1OC ... 44.37 ± 0.5 % of Control
COc1ccc(S(=O)(=O)Nc2ccc3nc4n(c(=O)c3c2)-c2ccccc2C4=O)cc1 ... 38.02 ± 3.1 % of Control
O=C1c2cc(NS(=O)(=O)c3ccc(Br)cc3)ccc2-n2c1nc1ccccc1c2=O ... 42.8 ± 1.5 % of Control
O=C1c2ccccc2-n2c1nc1ccc(NS(=O)(=O)c3c(Cl)cccc3Cl)cc1c2=O ... 42.32 ± 0.7 % of Control
Cc1ccc(S(=O)(=O)Nc2ccc3nc4n(c(=O)c3c2)-c2ccccc2C4=O)cc1 ... 42.01 ± 1.7 % of Control

Indicate its recorded H2O2-Induced PC12 Cell Viability (% of Control); the molecule in question is "O=C1c2ccccc2-n2c1nc1ccc(NS(=O)(=O)c3ccc(OC(F)(F)F)cc3)cc1c2=O"
44.67 ± 2.3 % of Control

Indicate its recorded H2O2-Induced PC12 Cell Viability (% of Control); the molecule in question is "O=C1c2cc(NS(=O)(=O)c3c(Cl)cccc3Cl)ccc2-n2c1nc1ccccc1c2=O"
48.49 ± 4.5 % of Control

Indicate its recorded H2O2-Induced PC12 Cell Viability (% of Control); the molecule in question is "O=C1c2cc(NS(=O)(=O)c3ccc(F)cc3)ccc2-n2c1nc1ccccc1c2=O"
45.23 ± 2.2 % of Control

* * *

Target: BuChE (from equine serum) (Equus caballus)
Construct: BuChE (from equine serum)
Sequence (P81908 whole entry): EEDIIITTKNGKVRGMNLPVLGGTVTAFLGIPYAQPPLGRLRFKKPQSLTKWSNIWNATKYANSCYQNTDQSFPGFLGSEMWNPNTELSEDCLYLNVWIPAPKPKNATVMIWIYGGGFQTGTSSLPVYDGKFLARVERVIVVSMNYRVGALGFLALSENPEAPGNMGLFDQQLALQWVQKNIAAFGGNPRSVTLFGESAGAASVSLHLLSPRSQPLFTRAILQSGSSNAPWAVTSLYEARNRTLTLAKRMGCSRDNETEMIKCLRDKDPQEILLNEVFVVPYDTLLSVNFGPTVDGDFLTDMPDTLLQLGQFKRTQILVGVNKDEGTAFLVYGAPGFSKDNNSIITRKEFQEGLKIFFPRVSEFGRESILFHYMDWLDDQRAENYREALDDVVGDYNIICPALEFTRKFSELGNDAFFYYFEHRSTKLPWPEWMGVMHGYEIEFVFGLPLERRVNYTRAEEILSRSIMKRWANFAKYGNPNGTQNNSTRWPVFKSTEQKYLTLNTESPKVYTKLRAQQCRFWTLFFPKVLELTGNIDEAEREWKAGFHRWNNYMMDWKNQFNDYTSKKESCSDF
Test: biochemical
Settings: mean ± SD of three experiments, read-out: BuChE Inhibition (IC50)
Description: The ChE inhibitory activity of the test compounds was determined using the modified Ellman’s method. The compounds were dissolved in DMSO (10 mmol/L) and then diluted with PB (phosphate buffer) solution to attain a range of final concentrations. […] Briefly, 100 μL of different concentrations of the test or standard compounds and 100 μL of AChE/BuChE (0.5 U/mL) were added into 48-well plates and then co-incubated at 37 °C for 30 min. […] All concentrations mentioned are final.
IC50 by entry:

Below: 3 compounds and their reported IC50.
Cc1ccc(S(=O)(=O)Nc2ccc3c(c2)C(=O)c2nc4ccccc4c(=O)n2-3)cc1 ... 8.61 µM
CC(=O)Nc1ccc(S(=O)(=O)Nc2ccc3nc4n(c(=O)c3c2)-c2ccccc2C4=O)cc1 ... 25.9 µM
O=C1c2cc(NS(=O)(=O)c3c(Cl)cccc3Cl)ccc2-n2c1nc1ccccc1c2=O ... > 50 µM

Indicate its recorded IC50; the compound in question is "O=C1c2ccccc2-n2c1nc1ccc(NS(=O)(=O)c3ccccc3OC(F)(F)F)cc1c2=O"
> 50 µM

Indicate its recorded IC50; the compound in question is "O=C1c2cc(NS(=O)(=O)c3ccccc3F)ccc2-n2c1nc1ccccc1c2=O"
6.11 µM

Indicate its recorded IC50; the compound in question is "COc1ccc(S(=O)(=O)Nc2ccc3c(c2)C(=O)c2nc4ccccc4c(=O)n2-3)cc1"
> 50 µM
